Data provenance: the RNAGym collection of RNA variant scans (doi:10.7554/elife.80360)

Give measured self-cleavage for each item. Keep answers brief.
B1: CPEB3 Ribozyme (parent)
chain: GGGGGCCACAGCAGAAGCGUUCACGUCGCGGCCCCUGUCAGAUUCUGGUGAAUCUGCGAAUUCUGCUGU

variants of: B1; test: self-cleavage, relative activity (ratio to wild type); higher = more cleavage; co-transcriptional
Kindly provide the number alone.

Query: Returns the measured self-cleavage for the input variant. Input: C54U C63G
Response: 0.859

Query: Lookup A15G U20G
Response: 0.161

Query: How about this variant: A16U G25C
Response: 0.194

Query: Follow-up entry: G47A A59U
Response: 0.872

Query: Another: C18G G30C
Response: 0.167

Query: Can you handle A60G G65U next?
Response: 0.412

Query: Also need U38C U43C , thanks.
Response: 0.858

Query: What about this variant? G56A U69G
Response: 1.03

Query: Follow-up entry: C6U G14A
Response: 0.672

Query: Next variant up: A60C G68U
Response: 0.395

Query: Then this variant: U26A G37A
Response: 0.287

Query: Repeat with U21G G41A
Response: 0.388

Query: Request: A15C U20A
Response: 0.125

Query: Same for G1C U67C
Response: 0.19

Query: Try U21A A42G next.
Response: 0.858

Query: Try C57U U62C next.
Response: 0.41

Query: Now give it for G25C C54U too.
Response: 0.133

Query: Follow-up item: G5U C18A
Response: 0.0315

Query: Follow-up entry: U43A G47A
Response: 0.972

Query: Next variant up: C6A A23U
Response: 0.749

Query: Next up: A51C U69G
Response: 1.01

Query: And C18A U61G ?
Response: 0.166

Query: Request: G5C G56A
Response: 0.158

Query: // query: A40G G41A
Response: 0.706

Query: Do the same for A42C A52G please
Response: 0.919

Query: Let us now turn to C22A G48C
Response: 0.162

Query: Would you kindly repeat that for C6U G65C ?
Response: 0.636

Query: Also, C34G C66G please.
Response: 0.434

Query: Then what about the variant G31A U67C ?
Response: 0.984

Query: Please do the same for U21A U69G as well.
Response: 1.06

Query: Follow-up entry: G19A U67G
Response: 0.205

Query: Input U43C U64A
Response: 0.713

Query: // query: C32A G68U
Response: 1.01

Query: Same read-out for G48A C57U ?
Response: 0.374

Query: What would you report for C24A U38C ?
Response: 0.517

Query: Next entry: C54G C63U
Response: 0.797

Query: Same thing, different variant: C18G U44A
Response: 0.116

Query: Follow-up entry: U21G C35A
Response: 0.13

Query: // query: U49G U55C
Response: 0.814

Query: Further, for G14U C39U ?
Response: 0.394

Query: Try this variant too: U53G G65A
Response: 0.707

Query: Input C18U U44C
Response: 0.617

Query: Queued: U38A G68U
Response: 0.939

Query: Same lookup for G19U G58A , please.
Response: 0.352

Query: Do the same for G25U U44C please
Response: 0.105

Query: Next record, please: U26A U38A
Response: 0.423

Query: Then G11C C29G ?
Response: 0.139

Query: Input C24G U36C
Response: 0.171

Query: Same read-out for C7G U55G ?
Response: 0.119

Query: Next variant up: G17C G30A
Response: 0.154

Query: Try G2U U64A next.
Response: 0.0856

Query: Another variant to check: G19U C29A
Response: 0.161

Query: Same again, this time with C7A U55C
Response: 0.208

Query: Lookup G3C C39U
Response: 0.0426

Query: Request: C6G G31U
Response: 0.967

Query: Next variant: C33A U36G
Response: 0.256

Query: Same thing, different variant: A23U C35G
Response: 0.658

Query: Also C6G G68C ?
Response: 0.478

Query: Item: C57G G68A
Response: 0.374

Query: And G2A U67C ?
Response: 0.242

Query: Cool, now C12A C34A
Response: 0.448

Query: Then this variant: U21A C54G
Response: 0.936

Query: And the next one, C34A G65U ?
Response: 0.57

Query: // same read-out, input: G17U U69C
Response: 0.874

Query: Another variant to look at: G17C U62G
Response: 0.201

Query: Cool, now C12U U69C
Response: 1.07

Query: Try this variant next: C32U A59U
Response: 0.785

Query: Same again, this time with C54G U64G
Response: 0.533

Query: Queued: U67A G68C
Response: 0.955

Query: And then G17A C45G , what is it?
Response: 0.435

Query: Also, C39A U53C please.
Response: 0.37

Query: Input U20A G68U
Response: 0.142

Query: Next variant up: A23G U67G
Response: 0.992

Query: What do we get for G2C A60C ?
Response: 0.0369

Query: # iterate: C54U U69C
Response: 1.07

Query: Then G11A G56U ?
Response: 0.475

Query: Subsequent entry: C22A G31U
Response: 0.194

Query: Can you check G37C U67C next?
Response: 0.282

Query: Now consider G30C and answer again.
Response: 0.682

Query: Okay, and G14A U44G ?
Response: 0.64

Query: Same lookup for G2A U69G , please.
Response: 0.335

Query: What do you get for G3C G4A ?
Response: 0.0691

Query: Note, next up: A23U U49C
Response: 0.981

Query: Also C12A U53G , if possible.
Response: 0.335

Query: Entry to check: G30A G48C
Response: 0.901

Query: What about this variant? A13C G41C
Response: 0.214

Query: Let us now turn to A40G A60C
Response: 0.329

Query: Please do the same for G31C C39A as well.
Response: 0.186

Query: How about this variant: U44G G58A
Response: 0.922

Query: Likewise for G19U C24G ?
Response: 0.121

Query: What do you have for U46A U69C ?
Response: 1.07
